Entry source: patent US20100286035A1

Target: T1, human FM3 (NMUR1) (human)
T1 chain: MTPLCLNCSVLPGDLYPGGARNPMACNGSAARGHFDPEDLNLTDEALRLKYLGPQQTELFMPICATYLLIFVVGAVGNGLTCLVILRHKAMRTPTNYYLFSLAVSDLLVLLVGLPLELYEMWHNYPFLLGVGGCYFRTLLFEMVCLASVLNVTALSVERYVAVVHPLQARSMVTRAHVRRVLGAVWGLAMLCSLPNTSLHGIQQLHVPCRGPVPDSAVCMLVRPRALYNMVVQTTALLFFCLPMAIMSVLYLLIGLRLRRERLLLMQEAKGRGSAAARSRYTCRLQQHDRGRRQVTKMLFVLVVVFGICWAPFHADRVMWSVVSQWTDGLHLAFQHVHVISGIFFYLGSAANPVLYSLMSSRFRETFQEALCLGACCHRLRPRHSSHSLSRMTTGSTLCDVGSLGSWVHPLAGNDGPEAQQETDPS
Experiment: competition with 125I-NMU8, human FM3/CHO membrane fraction, filter binding
*1 amine or outer side, *2 acyl side, *3 side chain or, on linkers, in order; H or OH if unused. Where no end group is shown, it is not given here. GMBS = cross-linking reagent joining N-terminal amine to thiol PEG, O=C1CC([*:3])C(=O)N1CCCC(=O)[*:2]; Hexanoyl(6-succinimido-3yl) = O=C1CC([*:1])C(=O)N1CCCCCC(=O)[*:2]; AB = not defined here; AD = not defined here
Exercise: for every item that follows, state its recorded IC50.
Field: value (include unit after the number)

Ask: Answer with reported IC50 of {PEG 30 kDa}-YFLFRPRN-NH2 [PEG30k-NH-NMU-8]
Result: 11 nM

Ask: Note IC50 for the binder shown: {(PEG20k)2-AD}-YFLFRPRN-NH2 (reading uncertain; also: printed as (PEG20k)2(AD)-NMU-8) [(PEG20k)2(AD)-NMU-8]
Result: 380 nM

Ask: Respond only with IC50 recorded for C(PEG 30 kDa)FFLFRPRN-NH2 [PEG30k(NHAc)-Cys-NMU-8]
Result: 18 nM

Ask: Supply IC50 value. Item: {PEG 30 kDa-GMBS}-YFLFRPRN-NH2 [PEG30k(GMBS)-NMU-8]
Result: 7.5 nM

Ask: Write down IC50 measured for item {PEG 30 kDa}-YFLFRPRN-NH2 [PEG30k-NMU-8]
Result: 5.7 nM

Ask: Give IC50 for {(PEG20k)2}-YFLFRPRN-NH2 [(PEG20k)2-NMU-8]
Result: 270 nM

Ask: Identify the reported IC50 for the following entry. {PEG 30 kDa-Hexanoyl(6-succinimido-3yl)}-YFLFRPRN-NH2 [PEG30k(EMCS)-NMU-8]
Result: 11 nM

Ask: Consider the binder {PEG 30 kDa-AB}-YFLFRPRN-NH2 (reading uncertain; also: PEG attached by reductive amination (NH link) to linker, printed as Try-Phe-Leu-Phe-Arg-Pro-Arg-Asn-NH2) [PEG30k(NH-AB)-NMU-8] . State its measured IC50.
Result: 2.4 nM
